Assay: amyloid nucleation score (Sup35N fusion, yeast selection) (log enrichment); library NNK3; higher = more nucleation; inactive = no reads after selection;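 note: zero at mode of non-aggregating sequences after 7 days selection at 30°C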
assay readout: amyloid nucleation score

item sequence: VIDWAYSPKPSDLTG
amyloid nucleation score: 1.09
//
item sequence: CLCWKAVLDRELFKSGFTAA
amyloid nucleation score: inactive
//
item sequence: QKIVSPRSGGFASPRMRQKV
amyloid nucleation score: inactive
//
item sequence: YIGCCWYSSCDRVSYRYSVM
amyloid nucleation score: 2.78
//
item sequence: LVYVLDCRAKLTNYLISTLY
amyloid nucleation score: inactive
//
item sequence: RTSLYICINKRTLSHRLFPC
amyloid nucleation score: inactive
//
item sequence: FGWLYNLNVSDIGTGD
amyloid nucleation score: inactive
//
item sequence: CHHYHMWLRFGSVEWIRGMD
amyloid nucleation score: -0.052

Read off the recorded amyloid nucleation score for "GRISAKSVVTSWRGVGPYSV"
inactive

Read off the recorded amyloid nucleation score for "YLGIFWRFFLRFSRGVTVWL"
-0.488

Read off the recorded amyloid nucleation score for "GGNLFSSVS"
inactive

Read off the recorded amyloid nucleation score for "ILCCTCYLRDIDMVVGACDG"
1.62

Read off the recorded amyloid nucleation score for "TTSCEVAWFEICLSSLNFTM"
inactive

Read off the recorded amyloid nucleation score for "SDFHCTQKRNMVWEEIA"
inactive

Read off the recorded amyloid nucleation score for "MIYLYNKKYMSCRFDTCIIP"
inactive

Read off the recorded amyloid nucleation score for "NVTTVFNKIPLPDSFNMRRW"
1.28

Read off the recorded amyloid nucleation score for "RGPFGLYSLDILLVSQVFRR"
0.502
